Target: T1, rat GLP-1 receptor (rat, UniProt P32301 22-463)
T1 sequence (looked up): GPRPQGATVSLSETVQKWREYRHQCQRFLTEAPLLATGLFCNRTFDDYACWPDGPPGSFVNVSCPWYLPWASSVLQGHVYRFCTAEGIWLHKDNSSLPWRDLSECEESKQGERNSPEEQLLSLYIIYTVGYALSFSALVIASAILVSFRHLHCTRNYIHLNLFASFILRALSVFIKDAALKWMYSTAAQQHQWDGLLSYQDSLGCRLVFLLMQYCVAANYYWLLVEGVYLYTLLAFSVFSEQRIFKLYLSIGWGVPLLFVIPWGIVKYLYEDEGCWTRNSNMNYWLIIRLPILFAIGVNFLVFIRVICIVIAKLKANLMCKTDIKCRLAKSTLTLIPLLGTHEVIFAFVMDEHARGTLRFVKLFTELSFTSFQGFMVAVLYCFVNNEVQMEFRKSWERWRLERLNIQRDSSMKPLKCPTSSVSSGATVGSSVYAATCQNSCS
Assay: cell-based or functional assay
experimental.readout: cAMP EC50 (nM)
One number for each entry, in nM.

Here is how some binders turned out for cAMP EC50.
INSERT INTO assay_data (binder, experimental_readout, measured_result) VALUES
  ('IP354 (Fc fusion) YSEGMHTSDFSKLLEEEAVRLFIEWLLAGGGGGGSGGGGSGGGGSGGGGSATHTCPPC', 'cAMP EC50', 3.6),
  ('IP267 (Fc fusion) YSEGTFTSDYSKLLEEEHVRLFIEWLVKGPGGGGGSGGGGSGGGGSGGGGSATHTCPPC', 'cAMP EC50', 0.3),
  ('IP383 (Fc fusion) YSEGTFTSLYRILLEEEAVRLFIEWLLAGGGGGGSGGGGSGGGGSGGGGSATHTCPPC', 'cAMP EC50', 0.13),
  ('IP403 (Fc fusion) YSEGTHTSDLRILLEEEAVRLFIEKLLAGGGSGGGGSGGGGSGGGGSGGGGSGGGGSGGGGSGGGGSACPPC', 'cAMP EC50', 73),
  ('IP245 (Fc fusion) YSEGTFTSDYSIAMDEEAVRLFIEWLVKGPAAAGGSGSTASSGSGSATGGGGAATHTCPPCPAPEF', 'cAMP EC50', 0.4),
  ('IP124 (Fc fusion) YSEGTFTSDYSKLLEEEAVRLFIEWLVKGAAAGGSGSTASSGSGSATGGGGAATHTCPPCPAPEF', 'cAMP EC50', 0.062),
  ('IP087 (Fc fusion) YSEGTFTSDYSKLLEEEAVRLFIEWLLAGPAAAGGSGSTASSGSGSATGGGGAATHTCPPCPAPEF', 'cAMP EC50', 0.11),
  ('IP253 (Fc fusion) YSEGTFTSDYSKLLDEEAVRLFIEWLLAGAPPGGSGSTASSGSGSATGGGGAATHTCPPCPAPEF', 'cAMP EC50', 0.21);

Give cAMP EC50 for all binders that follow.
1. IP374 (Fc fusion) YSEGTFTSLYSKLLEEEAVRLFIEWLLAGGGGGGSGGGGSGGGGSGGGGSATHTCPPC
2. IP272 (Fc fusion) YSEGTFTSDYSKLLEEEAVRLFIEWLLAQKAPPGGSGSTASSGSGSATGGGGAATHTCPPC
3. IP382 (Fc fusion) YSEGTFTSLYSKLLEEEAVRLFIEYLLAGGGGGGSGGGGSGGGGSGGGGSATHTCPPC
4. IP024 (Fc fusion) YSEGTFTSDYSKLLEEEAVRLFIEWLLAGAAAGGSGSTASSGSGSATGGGGAATHTCPPCPAPEF
5. IP263 (Fc fusion) YSEGTFTSDYSKLLEEEAVRLFIEWLVKQPGGGGGSGGGGSGGGGSGGGGSATHTCPPCPAPEF
6. IP304 (Fc fusion) YSEGTFTSDVSSYLERQAIEEFIAWLLKGGAAAGGSGSTASSGSGSATGGGGAATHTCPPC
7. IP384 (Fc fusion) YSEGTFTSDYSKLLEEEAVRLFIEWLLKGGGGGGSGGGGSGGGGSGGGGSATHTCPPC

[0.89, 0.085, 0.68, 0.083, 0.042, 0.024, 0.024]

Give cAMP EC50 for all binders that follow.
1. IP293 (Fc fusion) YSEGTFTSDYSKLLEEEAVRCFIECLVKGPGGGGGGGGGGGGGGGGGGGGACPPC
2. IP355 (Fc fusion) YSEGTHTSLFSKLLEEEAVRLFIEWLLAGGGGGGSGGGGSGGGGSGGGGSATHTCPPC
3. IP260 (Fc fusion) YSEGTFTSDYSKLLEEEAVQLFIEWLVKGPGGGGGSGGGGSGGGGSGGGGSATHTCPPCPAPEF
4. IP266 (Fc fusion) YSEGTFTSDYSKLLEEEAVRLFIEWLLAGAPPGGSGGGGSGGGGSGGGGSATHTCPPCPAPEF
5. IP323 (Fc fusion) YSEGTFTSDYSKLLEEEAVRLFIEWLVKGPGGGGGSGGGGSGGGGSGGGGSGGGGSGGGGSA

0.45
20
0.25
0.3
0.019

Returns the measured cAMP EC50 for the input binder. Input: IP357 (Fc fusion) YSEGTFTSDFSKLLEEEAVRLFIEFLLAGGGGGGSGGGGSGGGGSGGGGSATHTCPPC
0.13
